Biological target: epithelial sodium channel (ENaC) (Mus musculus, UniProt Q61180+Q9WU38+Q9WU39)
Construct: Mouse kidney M-1 cells were cultivated in DMEM; endogenous in cells; host or cells: mouse kidney M-1 cells (cortical collecting duct line), dexamethasone-treated, on transwell filters
Sequence (Q61180 1-699): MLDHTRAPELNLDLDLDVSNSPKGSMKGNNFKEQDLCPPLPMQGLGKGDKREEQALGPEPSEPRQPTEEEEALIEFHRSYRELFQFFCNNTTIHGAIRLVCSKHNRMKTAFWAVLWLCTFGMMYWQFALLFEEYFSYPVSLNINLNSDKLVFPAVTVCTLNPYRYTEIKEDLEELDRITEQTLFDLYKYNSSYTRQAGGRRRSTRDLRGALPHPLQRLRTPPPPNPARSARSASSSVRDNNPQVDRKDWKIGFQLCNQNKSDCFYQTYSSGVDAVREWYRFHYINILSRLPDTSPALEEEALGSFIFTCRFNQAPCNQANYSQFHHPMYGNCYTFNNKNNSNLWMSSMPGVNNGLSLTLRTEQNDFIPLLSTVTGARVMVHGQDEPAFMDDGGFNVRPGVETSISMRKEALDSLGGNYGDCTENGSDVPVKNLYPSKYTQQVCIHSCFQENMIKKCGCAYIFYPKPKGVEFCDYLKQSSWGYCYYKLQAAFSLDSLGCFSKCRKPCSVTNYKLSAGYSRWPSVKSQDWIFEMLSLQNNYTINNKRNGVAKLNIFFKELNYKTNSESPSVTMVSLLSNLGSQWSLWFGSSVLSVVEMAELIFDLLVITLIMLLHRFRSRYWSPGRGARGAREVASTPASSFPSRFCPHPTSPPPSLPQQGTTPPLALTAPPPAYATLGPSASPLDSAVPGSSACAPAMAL
Sequence (Q9WU38 1-638): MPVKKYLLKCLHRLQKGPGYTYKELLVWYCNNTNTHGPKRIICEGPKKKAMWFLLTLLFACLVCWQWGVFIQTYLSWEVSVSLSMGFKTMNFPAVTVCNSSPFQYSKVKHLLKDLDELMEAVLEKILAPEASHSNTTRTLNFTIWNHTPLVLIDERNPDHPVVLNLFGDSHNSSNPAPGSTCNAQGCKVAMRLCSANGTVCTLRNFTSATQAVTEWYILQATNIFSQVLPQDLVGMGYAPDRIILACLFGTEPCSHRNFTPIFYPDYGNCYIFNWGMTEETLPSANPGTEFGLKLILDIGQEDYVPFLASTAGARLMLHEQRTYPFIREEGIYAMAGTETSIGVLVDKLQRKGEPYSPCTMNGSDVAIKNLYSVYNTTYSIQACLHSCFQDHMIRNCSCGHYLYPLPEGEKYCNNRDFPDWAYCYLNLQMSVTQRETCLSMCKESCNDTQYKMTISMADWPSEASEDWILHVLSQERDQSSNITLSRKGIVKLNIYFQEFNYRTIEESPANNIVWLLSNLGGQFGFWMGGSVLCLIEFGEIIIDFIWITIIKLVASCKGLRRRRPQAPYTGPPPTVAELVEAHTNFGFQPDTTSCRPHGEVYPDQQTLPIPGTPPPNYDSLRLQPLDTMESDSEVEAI
Sequence (Q9WU39 1-655): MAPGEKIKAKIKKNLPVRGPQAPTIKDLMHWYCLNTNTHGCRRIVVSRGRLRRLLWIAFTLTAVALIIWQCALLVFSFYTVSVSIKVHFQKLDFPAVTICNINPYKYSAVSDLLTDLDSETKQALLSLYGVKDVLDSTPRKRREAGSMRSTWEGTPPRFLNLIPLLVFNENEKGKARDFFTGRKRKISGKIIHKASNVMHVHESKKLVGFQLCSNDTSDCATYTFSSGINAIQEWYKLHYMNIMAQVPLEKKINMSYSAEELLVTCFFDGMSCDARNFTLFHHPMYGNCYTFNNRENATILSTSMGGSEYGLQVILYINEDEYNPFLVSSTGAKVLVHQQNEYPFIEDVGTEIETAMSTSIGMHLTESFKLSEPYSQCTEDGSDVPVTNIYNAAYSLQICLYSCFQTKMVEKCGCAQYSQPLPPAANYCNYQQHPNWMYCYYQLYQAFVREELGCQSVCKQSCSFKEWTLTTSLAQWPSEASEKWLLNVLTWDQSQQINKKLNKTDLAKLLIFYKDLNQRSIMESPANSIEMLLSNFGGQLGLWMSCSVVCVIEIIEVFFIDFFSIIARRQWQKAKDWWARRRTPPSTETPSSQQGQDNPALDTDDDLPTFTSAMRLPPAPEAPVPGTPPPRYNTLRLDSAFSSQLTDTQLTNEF
Test: Ussing Chamber assay: inhibition of amiloride sensitive short circuit current (I_sc) in M-1 cells
Format: cell-based
Details: Ussing Chamber; mouse kidney M-1 cells on transwell filters; short circuit current; compound added to apical solution; 37° C.; read-out: IC50
Categorized via IC50: zone 1: < 4 nM; zone 2: ≥ 4 nM and < 10 nM; zone 3: ≥ 10 nM

Study these solved cases before continuing.
molecule: NC(=NC(=O)c1nc(Cl)c(N)nc1N)NC1CCN(CC(=O)NC2CN3CCC2CC3)CC1 (centres unmarked) [Example 1.32]
study.target: epithelial sodium channel (ENaC) (Mus musculus, UniProt Q61180+Q9WU38+Q9WU39)
answer.label: zone 3
--
molecule: CCN(CC)CCOc1ccc(NC(=O)CN2CCC(NC(N)=NC(=O)c3nc(Cl)c(N)nc3N)CC2)cc1 [Example 1.12]
study.target: epithelial sodium channel (ENaC) (Mus musculus, UniProt Q61180+Q9WU38+Q9WU39)
answer.label: zone 1
--
molecule: NC(=NC(=O)c1nc(Cl)c(N)nc1N)NC1CCN(CC(=O)NCCCn2ccnc2)CC1 [Example 1.24]
study.target: epithelial sodium channel (ENaC) (Mus musculus, UniProt Q61180+Q9WU38+Q9WU39)
answer.label: zone 2
--
molecule: CS(=O)(=O)c1ccc(CNC(=O)CN2CCC(NC(N)=NC(=O)c3nc(Cl)c(N)nc3N)CC2)cc1 [Example 1.25]
study.target: epithelial sodium channel (ENaC) (Mus musculus, UniProt Q61180+Q9WU38+Q9WU39)
answer.label: zone 1
--
molecule: NC(=NC(=O)c1nc(Cl)c(N)nc1N)NC1CCN(CC(=O)Nc2cccnc2)CC1 [Example 1.17]
study.target: epithelial sodium channel (ENaC) (Mus musculus, UniProt Q61180+Q9WU38+Q9WU39)
answer.label: zone 2
--
molecule: NC(=NC(=O)c1nc(Cl)c(N)nc1N)NC1CCN(CC(=O)Nc2cccc(S(=O)(=O)O)c2)CC1 [Example 1.20]
study.target: epithelial sodium channel (ENaC) (Mus musculus, UniProt Q61180+Q9WU38+Q9WU39)
answer.label: zone 3
--
molecule: COc1ccc(CNC(=O)CN2CCC(N/C(N)=N/C(=O)c3nc(Cl)c(N)nc3N)CC2)cc1 [Example 6.1]
study.target: epithelial sodium channel (ENaC) (Mus musculus, UniProt Q61180+Q9WU38+Q9WU39)
answer.label: zone 2
--
molecule: NC(=NC(=O)c1nc(Cl)c(N)nc1N)NC1CCN(CC(=O)NC2CCOCC2)CC1 [Example 1.29]
study.target: epithelial sodium channel (ENaC) (Mus musculus, UniProt Q61180+Q9WU38+Q9WU39)
answer.label: zone 2

Asked: # bin lookup: classify CN1CCN(c2cccc(CNC(=O)CN3CCC(NC(N)=NC(=O)c4nc(Cl)c(N)nc4N)CC3)c2)CC1 [Example 6.10] by its IC50
Given back: zone 1

Asked: # bin lookup: classify COC(=O)c1ccc(CNC(=O)CN2CCC(NC(N)=NC(=O)c3nc(Cl)c(N)nc3N)CC2)cc1 [Example 6.4] by its IC50
Given back: zone 1

Asked: # bin lookup: classify NC(=NC(=O)c1nc(Cl)c(N)nc1N)NC1CCN(CCN2CCOCC2)CC1 [Example 4.7] by its IC50
Given back: zone 3

Asked: # bin lookup: classify COCCNC(=O)CN1CCC(NC(N)=NC(=O)c2nc(Cl)c(N)nc2N)CC1 [Example 6.12] by its IC50
Given back: zone 1

Asked: # bin lookup: classify CCSCCNC(=O)CN1CCC(NC(N)=NC(=O)c2nc(Cl)c(N)nc2N)CC1 [Example 1.30] by its IC50
Given back: zone 1

Asked: # bin lookup: classify CCN1CCC(NC(N)=NC(=O)c2nc(Cl)c(N)nc2N)CC1 [Example 4.14] by its IC50
Given back: zone 3

Asked: # bin lookup: classify CCOC(=O)CNC(=O)CN1CCC(NC(N)=NC(=O)c2nc(Cl)c(N)nc2N)CC1 [Example 4.4] by its IC50
Given back: zone 3
